- Tested on: Hepatitis C virus
- PROTOCOL_TEXT: Inhibition of hepatitis C virus RNA replication in a subgenomic replicon cell line
- Type: functional, organism-based, Hepacivirus hominis
I'd be grateful if you could share measured EC50 for these entries.

Using known records, supply EC50 for CCNC(=O)Nc1ncnc2c1ncn2C1O[C@H](CO)[C@@H](O)[C@@]1(C)O (stereo partly drawn)
80 µM

Identify measured EC50 associated with C[C@]1(O)C(n2cnc3c(NOCCO)ncnc32)O[C@H](CO)[C@H]1O (stereo partly drawn)
80 µM

Give the measured EC50 for C[C@]1(O)C(n2cnc3c(-c4cccs4)ncnc32)O[C@H](CO)[C@H]1O (stereo partly drawn)
80 µM
